Just for reference, a melting point compilation (Tetko et al.; mined from patent text by program, amines drawn as free bases though some values may be those of a salt) is where these values come from.

Readings of melting point for the listed compounds

O=C(NCc1ccn(-c2cc3nc(C(=O)O)c(=O)[nH]c3cc2C(F)(F)F)c1)Nc1cccc(C(=O)O)c1 | 300 °C
COc1ccc(C=Cc2ccc(CBr)cc2)cc1 | 147 to 148 °C
CN1CCC(c2cccc3ccc(NC(=O)c4ccccc4)cc23)C1 (stereo not given) | 137 to 145 °C

Below: the item to evaluate.
melting point for CC1(C)CCC(NC(N)=O)CC1 is 174 to 176 °C

###

Readings of melting point for the listed molecules

COc1ccc(-c2cccc3c2C2(COc4cc5c(cc42)OCO5)C(=O)N3Cc2ccc(C(F)(F)F)o2)cn1 (centres undefined) | 174 to 176 °C
CC(CCCC(O)(C(F)(F)F)C(F)(F)F)C1CCC2C3C=CC4=CC(=O)C5OC5C4(C)C3CCC12C (centres undefined) | 181 to 184 °C
CC(C(C=Cc1ccc(Cl)cc1)OCc1ccc(Cl)cc1)n1cncn1 (centres undefined) | 91 °C
COc1ccc(OC)c(C2Nc3ccccc3S2)c1 (centres undefined) | 96 to 99 °C
CCOc1c(Br)ccc(C(=O)OC)c1N(C)S(C)(=O)=O | 82 to 88 °C

melting point for COC(=O)c1cc(OC)c(OC)c(OC)c1-c1c(C(=O)OC)cc2c(c1OC)OCO2 is 109 to 110 °C

melting point for CCNC(=O)c1sc(S(C)=O)cc1[Si](C)(C)C (centres undefined) is 71 to 76 °C

melting point for CON(C)C(=O)Cc1ccc([N+](=O)[O-])cc1 is 75 to 75.5 °C

melting point for O=C1[C@H]2Cc3c([nH]c4ccccc34)[C@@H](c3ccc4c(c3)OCO4)N2C(=O)C2CNCCN12 (some centres undefined) is 226 to 237 °C

###

Readings of melting point for the listed compounds

Examples with their reported melting point follow.
BrCCNC(c1ccccc1)(c1ccccc1)c1ccccc1 | 108 to 109 °C
Cc1cc(OCCN2CCCCC2)ccc1NC(=O)NC1C2CC3CC(C2)CC1C3 (stereo not given) | 196 °C
Cc1ccc(S(=O)(=O)N[C@@H]2CCCC[C@H]2OCC(=O)O)cc1 (relative stereo) | 56 to 58 °C
CCN1c2ncc(CCc3ccc(C(=O)OC)cc3)cc2C(=O)N(C)c2cccnc21 | 172 to 173 °C
COCCOc1ccc(OCC(O)CNCCOc2cccc(O)c2C(N)=O)cc1 (stereo not given) | 176 to 179 °C
Cc1ccsc1C=C(O)C(=O)O | 184 to 185 °C
Cn1c(COc2ccc(CC3SC(=O)NC3=O)cc2)nc2ccc(Oc3cccc(NC(=O)Nc4cccc(C(F)(F)F)c4)c3)cc21 (stereo not given) | 162 to 163 °C
COc1cc(-c2nc3sccn3c2-c2ccnc(N[C@@H]3CCCN(S(=O)(=O)c4ccc(Cl)cc4)C3)n2)ccc1F | 142 to 143 °C

melting point for COC(=O)C(C(=O)OC)c1ccc([N+](=O)[O-])cc1C(=O)O is 163 to 164 °C

melting point for O=C(O)COc1ccc2c(-c3ccccn3)noc2c1Cl is 255 to 256 °C

###

Readings of melting point for the listed compounds

Examples with their reported melting point follow.
Clc1cc(CC2(Cc3ccnc(Cl)c3)c3ccccc3-c3ncccc32)ccn1 | 188 to 190 °C
Ic1ccc(C2CCCCO2)cc1-c1cc(C2CCCCO2)ccc1I (stereo not given) | 112 to 113 °C
N#Cc1ccc(S(F)(F)(F)(F)F)cc1[N+](=O)[O-] | 57 to 59 °C
CC(C)CC(=O)Nc1c(C(=O)c2cc(CO)co2)[nH]c2cc(Cl)ccc12 | 200 to 201 °C
C=CCC(C#N)(C#N)Cc1ccc(Cl)c(Cl)c1 | 71.8 °C
COc1ccc(OC)c2c1C[C@](C)(O)CC21SCCS1 | 152 to 153 °C
Cc1ccc(Cl)cc1NC(=O)OC(C)(C)C | 100 to 102 °C
COc1cccc(C(O)CCN2CC=C(c3ccc(Cl)cc3)CC2)c1 (stereo not given) | 100 to 102 °C

melting point for COCCN(C1CC(C)(C)Oc2ccc(OCc3ccccc3)cc21)S(C)(=O)=O (stereo not given) is 66 to 68 °C

melting point for CON=C(C1=NCCO1)c1ccccc1Oc1ccc(C(F)(F)F)cn1 is 97 to 100 °C

###

Readings of melting point for the listed compounds

CN1C(=O)c2cccc(C(F)(F)F)c2Sc2ccccc21 | 139 to 141 °C
Cc1cc(OC(F)F)ccc1NC(=O)c1cccc(I)c1C(=O)NC(C)C | 207 to 209 °C

melting point for Cc1cc2c(cc1O)C(C1(c3ccccn3)CC1)N(C)CC2 (stereo unspecified) is 218 °C

melting point for CC(C)CP1C(O)C(O)P(CC(C)C)C(O)C1O (stereo unspecified) is 173 to 175 °C

melting point for CC(C)Oc1ccc(CCCOc2cc(CCC(=O)O)n(-c3ccccc3)n2)c(OCc2ccc(Cl)cc2Cl)c1 is 139 to 141 °C

melting point for COc1ccc(N(CCCC(=O)O)C(=O)CCN(C(=O)c2ccc(Cl)cc2)c2ccc(OC)cc2)cc1 is 91 to 93 °C

melting point for OC(c1cccc(F)c1)(c1cccc(F)c1)C1CCNCC1 is 117 to 118 °C

melting point for CCOC(=O)c1ccc(OCCOC)c(OC)c1 is 57 to 60 °C

melting point for COc1c(C)cnc(CSc2nc3cc(C(F)(F)F)ccc3[nH]2)c1C is 163 °C

###

Readings of melting point for the listed compounds

Examples with their reported melting point follow.
CCOC(=O)Oc1ccc(C(=O)OCCN2CCN(CCN3CCOCC3)CC2)cc1 | 85 to 87 °C
CCOC(=O)c1nn(-c2ccc(Cl)cc2)c2c1CCC2 | 122 to 123 °C
Cc1ccc(OCc2ccccc2)c(C(CCO)c2ccccc2)c1 (stereo unspecified) | 69 to 71 °C
COC(=O)CCc1ccc(OCc2cccc(/C=C/c3ccccc3)c2)cc1 | 100 to 101 °C
CCOCc1nc2c(N)nc3cc(-c4cncc(CO)c4)ccc3c2n1CC(C)C | 211 to 212 °C

melting point for Nc1nc(N)c(C(=O)n2ccnc2)nc1Cl is 232 to 234 °C

melting point for Oc1ccc(N2CCN(c3ccc(C(F)(F)F)cn3)CC2)cc1 is 178 to 179 °C

###

Readings of melting point for the listed compounds

Examples with their reported melting point follow.
CS(=O)(=O)c1ccc(-c2cc(=O)n(CC3CCCCC3)nc2-c2ccc(F)cc2)cc1 | 175 to 176 °C
CCC(C)(C)c1ccc2oc(-c3ccc(O)cc3)nc2c1 | 236 to 237 °C

melting point for COc1ccc2c(c1C)OC(C(=O)O)C2 (stereo unspecified) is 142 to 143 °C

melting point for COc1ccc2c(C(F)(F)F)cc(=O)[nH]c2c1NC(C)=O is 280 °C

melting point for CCc1nc(/C=C\c2cn(-c3ccccc3)nc2OCc2ccc(OCc3nc(N4CCOCC4)sc3C)c(OC)c2)cs1 is 76 to 78 °C

melting point for O=C(O)c1cc2nc3n(c2cc1Cl)CCC3 is > 270 °C

###

Readings of melting point for the listed compounds

Examples with their reported melting point follow.
O=C1NCCCN1Cc1ccc2ccccc2c1 | 151 to 155 °C
Cc1oc2ccccc2c(=O)c1O | 179 to 180 °C
C(#Cc1ccccc1)CCN1CCC(c2ccccc2)CC1 | 65 to 66 °C
CCOC(=O)N1CCC(=NO)c2cc(F)ccc21 | 122 to 124 °C
CC(C)(C)OC(=O)C(C(=O)c1ccc(NS(C)(=O)=O)cc1Cl)C(=O)C1CC1 (stereo unspecified) | 137 to 140 °C

Below: the item to evaluate.
melting point for COc1c2oc(C)cc2cc2c(C)cc(=O)oc12 is 154 to 155 °C

###

Readings of melting point for the listed molecules

CCOC(=O)c1cc(-c2csc(-c3ccnc(NCC4CC4)c3)n2)c(=O)[nH]c1C | > 260 °C
CC(=O)Oc1ccc(C(=O)Nc2ccc(Cl)c(NC(=O)c3ccc(C#N)cc3)c2)cc1 | 195 to 196 °C
Fc1cccc(F)c1C1=NC(c2ccccc2Br)CCS1 (centres undefined) | 136 to 138 °C
Cn1nc(-c2ccc(S(C)(=O)=O)cc2)c(-c2ccc(F)cc2)c1OCC(=O)c1ccc(F)cc1 | 166 to 169 °C
CN(C)Cc1ccc(-c2cc3onc(-c4ccccc4)c3c(=O)n2C)cc1 | 159 to 161 °C
COC(=O)c1cccc(C2C(C(=O)c3ccc(OC)cc3)=C(O)C(=O)N2c2nnc(C)s2)c1 (centres undefined) | 218 °C
CCOC(=O)c1cn(C2CC2)c2cc(F)c(F)c(N)c2c1=O | 240 to 241 °C
CSc1ccc(-c2cc(C(=O)O)nn2-c2ccc(F)cc2)cc1 | 199 to 200 °C

Below: the item to evaluate.
melting point for O=NN(CCCl)C(=O)NC1(C(=O)Nc2nncs2)CCCC1 is 160 °C
